Origin of values: patent US20240408169A1

- Tested on: OVCAR3 cells
- assay info: MTT proliferation assay, OVCAR3;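 note: compound given as an 8- or 10-point series, one day after plating, with exposure covering roughly 3-4 cell doublings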
- Assay type: cell-based
- test settings: 5 days compound exposure, 1:3 serial dilution starting at 10 μM
*1 amine or outer side, *2 acyl side, *3 side chain or, on linkers, in order; H or OH if unused. Where a SMILES comes first, the peptide text is derived from it. Bridges are numbered along the chain shown (N, C = ends). [ ]: non-standard residue; d: D form. The star is where a group is joined. X147 = CCSc1ccc(-c2ccc(Cl)cc2C[C@@H](C(=O)[*:2])N(C)[*:1])cn1; X35 = CN([C@@H](Cc1cc(Cl)ccc1-c1cnc2ccnn2c1)C(=O)[*:2])[*:1]; NMehhhLys(Me) = CN([C@@H](CCCCCCCN(C)[*:3])C(=O)[*:2])[*:1]; cBuCO(3,3-F2-1-CF3) = O=C(C1(C(F)(F)F)CC(F)(F)C1)*; Pro(trans-4-F) = O=C(O)[C@@H]1C[C@@H](F)CN1; Gly(cPr) = N[C@H](C(=O)O)C1CC1
Form field: log10(GI50) (one value per entry).
Scale: decimal log of GI50, GI50 in nM.

CC(C)C[C@@H]1NC(=O)[C@@H](N(C)C(=O)[C@@H](NC(=O)[C@@H]2C[C@@H](F)CN2C(=O)C2(C(F)(F)F)CC(F)(F)C2)C2CC2)CCCCCCCN(C)C(=O)[C@H](Cc2cc(Cl)ccc2-c2cnc3ccnn3c2)N(C)C1=O [Example 172] ({cBuCO(3,3-F2-1-CF3)}-[Pro(trans-4-F)][Gly(cPr)][NMehhhLys(Me)]L[X35]; lactam 3-C)    1.78
CC(C)C[C@@H]1NC(=O)[C@@H](N(C)C(=O)[C@@H](NC(=O)[C@@H]2C[C@@H](F)CN2C(=O)C2(C(F)(F)F)CC(F)(F)C2)C2CC2)CC=CCCCCN(C)C(=O)[C@H](Cc2cc(F)ccc2C2=CCC(O)CC2)N(C)C1=O (stereo partly shown)    2.11
CCSc1ccc(-c2ccc(Cl)cc2C[C@H]2C(=O)N(C)CCCCCCC[C@H](N(C)C(=O)[C@@H](NC(=O)[C@@H]3C[C@@H](F)CN3C(=O)C3(C(F)(F)F)CC(F)(F)C3)C3CC3)C(=O)N[C@@H](CC(C)C)C(=O)N2C)cn1 [Example 181] ({cBuCO(3,3-F2-1-CF3)}-[Pro(trans-4-F)][Gly(cPr)][NMehhhLys(Me)]L[X147]; lactam 3-C)    2.62
CC(=O)N1[C@H]2CC[C@@H]1C=C(c1ccc(Cl)cc1C[C@H]1C(=O)N(C)CCCCCCC[C@H](N(C)C(=O)[C@@H](NC(=O)[C@@H]3C[C@@H](F)CN3C(=O)C3(C(F)(F)F)CC(F)(F)C3)C3CC3)C(=O)N[C@@H](CC(C)C)C(=O)N1C)C2 (single isomer, unassigned) [Example 57-P1]    1.00
CC(C)C[C@@H]1NC(=O)[C@@H](N(C)C(=O)[C@@H](NC(=O)[C@@H]2C[C@@H](F)CN2C(=O)C2(C(F)(F)F)CC(F)(F)C2)C2CC2)CC=CCCCCNC(=O)[C@H](Cc2cc(Cl)ccc2C2=CC[C@H](O)CC2)N(C)C1=O    2.23
CC(C)C[C@@H]1NC(=O)[C@@H](N(C)C(=O)[C@@H](NC(=O)[C@@H]2C[C@@H](F)CN2C(=O)C2(C(F)(F)F)CC(F)(F)C2)C2CC2)CC=CCCCCNC(=O)[C@H](Cc2cc(Cl)ccc2C2=CCN(C(=O)C(C)C)CC2)N(C)C1=O    2.36

Attention now shifts to the item below.
Supply log10(GI50) value. Item: CC(C)C[C@@H]1NC(=O)[C@@H](N(C)C(=O)[C@@H](NC(=O)[C@@H]2C[C@@H](F)CN2C(=O)C2(C(F)(F)F)CC(F)(F)C2)C2CC2)CC=CCCCCN(C)C(=O)[C@H](Cc2cc(F)ccc2-c2cnn(C3CC3)c2)N(C)C1=O 1.30
